Below, each entry is listed alongside its reported melting point.

# Compound, melting point
measured = [
    ("CCCCc1cc(SCc2ccc(-c3ccc(C(F)(F)F)cc3)cc2)ccc1OCC(=O)O", "155 to 157 °C"),
    ("CO[C@@H]1CN(CCn2c(C)nc3ccccc3c2=O)CC[C@@H]1NC(=O)c1cc(Cl)c(N)c2c1OCC2 (relative stereo)", "275 °C"),
    ("CCCCCCCCCCOC1CCC(=O)N1 (stereo unspecified)", "44 to 46 °C"),
    ("N#Cc1cn(-c2c(Cl)cc(C(F)(F)F)cc2Cl)nc1C(F)(F)F", "116 to 118 °C"),
    ("CCCC[C@H](NC(=O)[C@H](CC(C)C)NC(=O)c1cccc(F)c1F)C(=O)CSCc1ccco1", "120 to 122 °C"),
    ("Cc1cc(O)c(C(=O)CCC(F)(F)F)c(=O)o1", "104 °C"),
    ("COC(C)Cn1c(C)nc2c(N)nc3ccccc3c21 (stereo unspecified)", "196 to 197 °C"),
    ("CC(C)[C@H](NC(=O)N(C)Cc1ccccn1)C(=O)O", "145 °C"),
    ("CCCNC(=O)n1c(=O)cc2n1C(c1cccc([N+](=O)[O-])c1)C(C(=O)OC(C)C)=C(C)N2 (stereo unspecified)", "160 to 163 °C"),
    ("Clc1cc(Cl)nc(N2CCCC2)n1", "95 to 98 °C"),
    ("O=C(O)CCCCCSc1ccc(-c2ccc(Cl)cc2)cc1", "156 to 157 °C"),
]

----------
Below, each entry is listed alongside its reported melting point.
Measure name: melting point

# Compound, Reported value
measured = [
    ("CNC(=O)c1cccc(C2=NC(C)(C)Cc3cc(OC)c4c(c32)CC(C)(C)O4)c1", "206 to 207 °C"),
    ("CC(=O)N1CCCC2(Cc3cc([N+](=O)[O-])ccc3O2)C1 (centres undefined)", "165 to 167 °C"),
    ("CCOC(=O)c1cn2c(n1)c(OCC)nc1cc(Br)c(Br)cc12", "247 to 249 °C"),
    ("Cc1cn(C2COC(CO)C(O)C2)c(=O)[nH]c1=O (centres undefined)", "87 to 89 °C"),
]

----------
# Molecule, melting point
records = [
    ("Cc1cc(NC(=O)N(C)C)cc(C)c1S(=O)(=O)C[N+](=O)[O-]", "205 to 206 °C"),
    ("N#Cc1cnc2cc(C#CCO)ccc2c1Nc1ccc(Cl)cc1Cl", "251 to 253 °C"),
    ("O=c1[nH]c2cc(Cl)ccc2c(=O)n1S(=O)(=O)c1ccccc1Cl", "275 to 276 °C"),
    ("CC(C)c1ccc(NC(=O)C(F)(F)F)cc1", "98 °C"),
    ("COc1cc(C(C)C)c2c(c1)S(=O)(=O)N(COc1cc(C#N)nn1-c1ccccc1)C2=O", "114 to 116 °C"),
    ("CC(C)(C)c1ccc(CCOc2ncnc3nccnc23)cc1", "149 °C"),
    ("CCOC(=O)C(C(=O)CCCC(C)C)C1c2ccccc2C(=O)N1c1ccc2ccc(Cl)nc2n1 (stereo not given)", "135 °C"),
    ("Cc1ccc(NCCNS(C)(=O)=O)cc1O", "145 °C"),
    ("CCCCCCC(C(C)O)n1cnc(C#N)c1N (stereo not given)", "110 to 111 °C"),
    ("COc1nc(C)c(N2CCCn3c2nc2c(C#N)ccc(C(OC(F)F)C(F)(F)F)c23)c(C)n1 (stereo not given)", "250 to 252 °C"),
    ("COc1cc(C(C)=O)ccc1SCCCCl", "53 to 55 °C"),
    ("O=C(CCS(=O)(=O)CCOCCc1ccccc1)NCCc1ccc(O)c2[nH]c(=O)sc12", "142 to 144 °C"),
    ("OCC1CC(O)C(n2c(NC3CC3)nc3cc(Cl)c(Cl)cc32)C1 (stereo not given)", "251 to 253 °C"),
    ("c1ccc(COc2ccc(Nc3ccccn3)cc2)cc1", "110 to 112 °C"),
    ("CC(C)CC1C(=O)NCCN1Cc1ccccc1 (stereo not given)", "126 to 127 °C"),
    ("CCCn1c(=O)c2[nH]cnc2n(-c2ccc(Cl)cc2)c1=O", "233 to 234 °C"),
    ("Cn1ncc2c(c1=O)SCCNC2C(=O)c1ccc([N+](=O)[O-])cc1 (stereo not given)", "230 to 232 °C"),
    ("CCS(=O)(=O)Nc1cc(Cc2c[nH]cn2)ccc1F", "122 to 123 °C"),
    ("Oc1ccc(F)cc1Cc1ccc(F)cc1", "134 to 139 °C"),
    ("Cc1oc(-c2ccccc2)nc1COc1ccc(COc2nn(-c3ccccc3)cc2C=O)cc1", "152 to 153 °C"),
    ("O=CN(O)C(CO)CS(=O)(=O)c1ccc(Oc2ccc(OC(F)(F)F)cc2)cc1 (stereo not given)", "115 to 117 °C"),
    ("N#CSc1nc(I)ncc1Br", "199 to 202 °C"),
    ("CCCN(CCC)CCc1cccc2[nH]c(=O)[nH]c12", "189 to 192 °C"),
    ("Oc1cc2ccccc2cc1OCCOc1ccccc1", "141 to 142 °C"),
    ("CCOC(=O)C(NC(=O)NC)C(=O)OCC", "139 °C"),
    ("CC(C)C(=O)NCc1cccc(-c2nc(=O)c3ccccc3s2)n1", "189 °C"),
    ("O=C(NCCc1ccc(O)c(F)c1)OCc1ccccc1", "89 to 90 °C"),
    ("N#Cc1cccc(CN2C(=O)C3(COc4cc5c(cc43)CCO5)c3ccccc32)c1 (stereo not given)", "187 to 193 °C"),
    ("COc1ccc2c(c1)CC(NCC(=O)O)CC2 (stereo not given)", "203 °C"),
    ("CCn1nc(C(C)C)c2c1C(=O)NCC(c1ccc(O)cc1)=N2", "230 °C"),
    ("CCCn1c(=O)c2[nH]c(/C=C/c3cccc(Cl)c3)nc2n(CCC)c1=O", "259 °C"),
    ("CC(C)(CCCc1cccnc1)NC(=O)/C=C/C=C(c1ccc(F)cc1)c1ccc(F)cc1", "164 °C"),
    ("Cc1cccc(C)c1CNc1cc(Br)cc2c1nc(C)n2C", "185 °C"),
    ("Cc1nn(-c2ccccn2)c2ncc(C(=O)NC3CCCCC3)c(O)c12", "> 300 °C"),
    ("O=C(Nc1ccc(C2=CCN(C(=O)OCc3ccccc3)CC2)cc1)OCc1ccccc1", "146 to 148 °C"),
    ("CCc1nc(C)[nH]c1Sc1ccccc1", "171 °C"),
    ("Cn1c(C(F)(F)F)cc(=O)n(-c2ccc(Cl)c3c2OC(C)(C)C3=O)c1=O", "177 to 178 °C"),
    ("Cc1[nH]c(C(=O)NCCc2ccccn2)c(C)c1-c1nc2ccc(C(=O)c3ccccc3)cc2[nH]1", "238 to 244 °C"),
    ("CCCCN(CCCC)c1ccc(C=Cc2ccc(C=CC3=C(C#N)C(=C(C#N)C#N)OC3(c3ccccc3)C(F)(F)F)s2)c(OCc2ccccc2)c1 (stereo not given)", "196 to 197 °C"),
    ("CCOC(=O)c1cc(CC)sc1Nc1ccc(Cl)cc1N", "119 to 121 °C"),
]
